Quick record of Ki values for Glucocorticoid receptor (Homo sapiens, UniProt P04150).
The answer is to be given in nM; state only the numeric part.

Known results for compounds:
C[C@]12C=CC(=O)C=C1[C@@H](F)C[C@H]1[C@@H]3C[C@H]4CN(Cc5ccccc5)C[C@@]4(C(=O)CO)[C@@]3(C)C[C@H](O)[C@@]12F 0.66
CN(C)C(=O)[C@@]12CN(Cc3ccccc3)C[C@@H]1C[C@H]1[C@@H]3C[C@H](F)C4=CC(=O)C=C[C@]4(C)[C@@]3(F)[C@@H](O)C[C@@]12C 1.1
CC(C)CCN1C[C@@H]2C[C@H]3[C@@H]4C[C@H](F)C5=CC(=O)C=C[C@]5(C)[C@@]4(F)[C@@H](O)C[C@]3(C)[C@]2(C(=O)CO)C1 1.9
C[C@]12C=CC(=O)C=C1[C@@H](F)C[C@H]1[C@@H]3C[C@H]4CN(c5ccc(Cl)cc5)C[C@@]4(C(=O)CO)[C@@]3(C)C[C@H](O)[C@@]12F 0.67

Query block: Kindly state the measured Ki obtained for CC(C)CCN1C[C@@H]2C[C@H]3[C@@H]4C[C@H](F)C5=CC(=O)C=C[C@]5(C)[C@@]4(F)[C@@H](O)C[C@]3(C)[C@]2(C(=O)SCF)C1 with Glucocorticoid receptor (Homo sapiens, UniProt P04150).
Sequence (P04150 whole entry): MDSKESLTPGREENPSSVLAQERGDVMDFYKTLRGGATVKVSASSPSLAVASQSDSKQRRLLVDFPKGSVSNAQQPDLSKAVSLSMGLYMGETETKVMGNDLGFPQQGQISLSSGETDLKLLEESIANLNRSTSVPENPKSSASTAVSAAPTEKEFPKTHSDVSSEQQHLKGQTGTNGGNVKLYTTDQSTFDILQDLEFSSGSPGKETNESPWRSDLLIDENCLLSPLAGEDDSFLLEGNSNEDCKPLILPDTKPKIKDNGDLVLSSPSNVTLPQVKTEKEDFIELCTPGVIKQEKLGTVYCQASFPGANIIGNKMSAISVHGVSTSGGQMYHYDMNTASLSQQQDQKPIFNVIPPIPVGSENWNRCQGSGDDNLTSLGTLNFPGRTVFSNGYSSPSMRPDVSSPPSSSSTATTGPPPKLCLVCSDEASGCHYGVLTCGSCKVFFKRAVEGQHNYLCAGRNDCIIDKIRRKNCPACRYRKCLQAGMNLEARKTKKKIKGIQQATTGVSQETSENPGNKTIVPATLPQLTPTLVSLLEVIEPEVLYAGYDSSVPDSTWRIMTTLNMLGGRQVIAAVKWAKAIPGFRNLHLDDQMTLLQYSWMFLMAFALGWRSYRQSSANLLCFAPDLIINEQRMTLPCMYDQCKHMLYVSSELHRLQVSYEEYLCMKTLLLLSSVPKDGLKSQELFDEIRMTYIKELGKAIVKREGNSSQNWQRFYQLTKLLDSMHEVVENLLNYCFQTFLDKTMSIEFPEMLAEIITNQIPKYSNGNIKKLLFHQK
Result block: 4.8

====

# Assay info: MRTlast in Sprague-Dawley rat lung at 1 umol/kg, it by HPLC-MS/MS method
# Type: ADME, tissue-based
# Test parameters: inhaled or intranasal
Metric name: MRT last (h)
The answer is to be given in h; state only the numeric part.

Molecule	Value
CCCC1O[C@@H]2C[C@H]3[C@@H]4CCC5=CC(=O)C=C[C@]5(C)[C@H]4[C@@H](O)C[C@]3(C)[C@]2(C(=O)CO)O1 (some centres undefined) [BUDESONIDE]	0.71
C[C@]12C=CC(=O)C=C1[C@@H](F)C[C@H]1[C@@H]3C[C@H]4CN(Cc5cccc(Cl)c5)C[C@@]4(C(=O)CO)[C@@]3(C)C[C@H](O)[C@@]12F.Cl	6.4
C[C@@H]1C[C@H]2[C@@H]3C[C@H](F)C4=CC(=O)C=C[C@]4(C)[C@@]3(F)[C@@H](O)C[C@]2(C)[C@@]1(OC(=O)c1ccco1)C(=O)SCF [FLUTICASONE FUROATE]	9.5

// below: MRT last requested for another molecule
Query block: Any idea what its MRT last is? The molecule is C[C@]12C=CC(=O)C=C1[C@@H](F)C[C@H]1[C@@H]3C[C@H]4CN(Cc5cccc(Cl)c5)C[C@@]4(C(=O)CO)[C@@]3(C)C[C@H](O)[C@@]12F
Result block: 16.7

====

# Assay info: MRTlast in Sprague-Dawley rat plasma at 1 umol/kg, it by HPLC-MS/MS method
# Type: ADME, cell-free
# Test parameters: inhaled or intranasal
Reported MRT last by item:

Molecule	Value
CCCC1O[C@@H]2C[C@H]3[C@@H]4CCC5=CC(=O)C=C[C@]5(C)[C@H]4[C@@H](O)C[C@]3(C)[C@]2(C(=O)CO)O1 (some centres undefined) [BUDESONIDE]	1.2 h

Query block: Any idea what its MRT last is? The molecule is C[C@@H]1C[C@H]2[C@@H]3C[C@H](F)C4=CC(=O)C=C[C@]4(C)[C@@]3(F)[C@@H](O)C[C@]2(C)[C@@]1(OC(=O)c1ccco1)C(=O)SCF [FLUTICASONE FUROATE]
Result block: 1.4 h

Query block: Any idea what its MRT last is? The molecule is C[C@]12C=CC(=O)C=C1[C@@H](F)C[C@H]1[C@@H]3C[C@H]4CN(Cc5cccc(Cl)c5)C[C@@]4(C(=O)CO)[C@@]3(C)C[C@H](O)[C@@]12F.Cl
Result block: 1.1 h

Query block: Any idea what its MRT last is? The molecule is C[C@]12C=CC(=O)C=C1[C@@H](F)C[C@H]1[C@@H]3C[C@H]4CN(Cc5cccc(Cl)c5)C[C@@]4(C(=O)CO)[C@@]3(C)C[C@H](O)[C@@]12F
Result block: 1.4 h
